run-description: Hemodynamic effects in anesthetized open-chest dogs
Type: in vivo, Mongrel dogs
particulars: Canis lupus familiaris, 1.0 mg/kg iv, read-out: Cor. BF, percent change from control
experimental-endpoint: change in vivo at 1 mg/kg (%)
Answers are plain numbers, in %.

// solved cases for change in vivo at 1 mg/kg follow
[
  {
    "molecule": "COC(=O)C1=C(C)NC(C)=C(C(=O)OC)C1c1cc([N+](=O)[O-])ccc1OCCCCNC[C@H](O)COc1ccccc1 [Example 16]",
    "experimental-endpoint": "change in vivo at 1 mg/kg",
    "measured-number": 97
  },
  {
    "molecule": "COC(=O)C1=C(C)NC(C)=C(C(=O)OC)C1c1cc([N+](=O)[O-])ccc1OCCCNCC(O)COc1ccccc1 (stereo not drawn) [Example 8]",
    "experimental-endpoint": "change in vivo at 1 mg/kg",
    "measured-number": 10
  },
  {
    "molecule": "COC(=O)C1=C(C)NC(C)=C(C(=O)OC)C1c1cc(SC)ccc1OCCCCNCC(O)COc1ccccc1.Cl (stereo not drawn) [Example 28, hydrochloride]",
    "experimental-endpoint": "change in vivo at 1 mg/kg",
    "measured-number": 70
  },
  {
    "molecule": "COC(=O)C1=C(C)NC(C)=C(C(=O)OC)C1c1cc([N+](=O)[O-])ccc1OCCCCNC[C@@H](O)COc1ccccc1 [Example 17]",
    "experimental-endpoint": "change in vivo at 1 mg/kg",
    "measured-number": 94
  },
  {
    "molecule": "COC(=O)C1=C(C)NC(C)=C(C(=O)OC)C1c1cc([N+](=O)[O-])ccc1OCCCCNCC(O)COc1ccc(NC(C)=O)cc1 (stereo not drawn) [Example 42]",
    "experimental-endpoint": "change in vivo at 1 mg/kg",
    "measured-number": 8
  },
  {
    "molecule": "COC(=O)C1=C(C)NC(C)=C(C(=O)OC)C1c1cc(S(C)(=O)=O)ccc1OCCCCNCC(O)COc1ccccc1 (stereo not drawn) [Example 23]",
    "experimental-endpoint": "change in vivo at 1 mg/kg",
    "measured-number": 64
  },
  {
    "molecule": "COC(=O)C1=C(C)NC(C)=C(C(=O)OC)C1c1cc(OC)ccc1OCCCCNCC(O)COc1ccccc1 (stereo not drawn) [Example 26]",
    "experimental-endpoint": "change in vivo at 1 mg/kg",
    "measured-number": 43
  },
  {
    "molecule": "COC(=O)C1=C(C)NC(C)=C(C(=O)OC)C1c1cc(Cl)ccc1OCCCCNCC(O)COc1ccccc1 (stereo not drawn) [Example 24]",
    "experimental-endpoint": "change in vivo at 1 mg/kg",
    "measured-number": 62
  }
]

Moving on to the next molecule.
(Q) Give the measured change in vivo at 1 mg/kg of COC(=O)C1=C(C)NC(C)=C(C(=O)OC)C1c1cc([N+](=O)[O-])ccc1OCCCCNCC(O)COc1ccccc1 (stereo not drawn) [Example 15] .
(A) 96

----------
run-description: Hemodynamic effects in anesthetized open-chest dogs
Format: in vivo, Mongrel dogs
particulars: Canis lupus familiaris, 0.3 mg/kg iv, read-out: Cor. BF, percent change from control
experimental-endpoint: change in vivo at 0.3 mg/kg (%)
Numbers only, in %.

[
  {
    "compound": "COC(=O)C1=C(C)NC(C)=C(C(=O)OC)C1c1cc([N+](=O)[O-])ccc1OCCCCCNCC(O)COc1ccccc1 (stereo not drawn)",
    "result-units": "%",
    "measured-number": 14
  },
  {
    "compound": "COC(=O)C1=C(C)NC(C)=C(C(=O)OC)C1c1ccccc1OCCCCNCC(O)COc1ccccc1 (stereo not drawn)",
    "result-units": "%",
    "measured-number": 3
  }
]

Hi! Can you tell me change in vivo at 0.3 mg/kg for each of these compounds?
1. COC(=O)C1=C(C)NC(C)=C(C(=O)OC)C1c1cc([N+](=O)[O-])ccc1OCCNCC(O)COc1ccccc1 (stereo not drawn)
2. CCOC(=O)C1=C(C)NC(C)=C(C(=O)OCC)C1c1cc([N+](=O)[O-])ccc1OCCCCNCC(O)COc1ccccc1 (stereo not drawn)
3. COc1ccc([C@@H]2Sc3ccccc3N(CCN(C)C)C(=O)[C@@H]2OC(C)=O)cc1 [Diltiazem, reference compound]
4. CCOC(=O)C1=C(C)NC(C)=C(C(=O)OC)C1c1cc([N+](=O)[O-])ccc1OCCCCNCC(O)COc1ccccc1 (stereo not drawn)

(A)
69
20
90
26

All figures here come from patent US4727082A.
